Value source: patent US8507533B2

# System under test: human glucagon receptor (Homo sapiens (Human), UniProt P47871)
# Sequence (P47871 26-477): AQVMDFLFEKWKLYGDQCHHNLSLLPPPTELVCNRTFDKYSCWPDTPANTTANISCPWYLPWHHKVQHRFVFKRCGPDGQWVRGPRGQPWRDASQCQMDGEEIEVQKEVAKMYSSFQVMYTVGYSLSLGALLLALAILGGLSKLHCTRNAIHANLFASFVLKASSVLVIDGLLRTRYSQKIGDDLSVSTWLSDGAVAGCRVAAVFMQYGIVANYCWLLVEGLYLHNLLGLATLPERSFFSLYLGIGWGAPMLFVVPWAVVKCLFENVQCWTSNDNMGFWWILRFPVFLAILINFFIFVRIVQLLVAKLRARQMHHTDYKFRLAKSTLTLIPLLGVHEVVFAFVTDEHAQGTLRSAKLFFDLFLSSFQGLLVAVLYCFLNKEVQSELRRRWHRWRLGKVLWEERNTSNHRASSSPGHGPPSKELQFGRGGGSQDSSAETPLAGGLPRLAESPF
# Test name: Glucagon cAMP Assay (Cisbio cAMP detection)
# Type: cell-based
# Assay conditions: CHOK1 cells stably transfected with the human glucagon receptor; block of glucagon induced cAMP production; Kb by modified Cheng-Prusoff equation
Lab note: anything with Kb below 300 nM is marked T; values at 300 nM or higher are marked F.

{"columns": ["Compound", "Category label"],
 "data": [
  ["CC1(C)CC([C@H](Nc2ccc(-n3cc(C4CC4)cn3)nc2)c2ccc(C(=O)NCCC(=O)O)cc2)C1 (single isomer, unassigned; isomer 2) [Example 175]", "T"],
  ["CCCC(Oc1ccc(-c2c(C)noc2C)cc1)c1ccc(C(=O)NCCC(=O)O)cc1 (racemic)", "F"]
]}

-- ask # TODO verify Kb < 300 nM strictly for this compound: CCCC(Nc1ccc(-n2cc(-c3ccccc3)cn2)nc1)c1ccc(C(=O)NCCC(=O)O)cc1 (single isomer, unassigned; isomer 2) [Example 161]
-- reply T

-- ask # TODO verify Kb < 300 nM strictly for this compound: CC(C)CC(Cc1ccc(-n2cc(C(F)(F)F)cn2)cc1)c1ccc(C(=O)NCCC(=O)O)cc1 (racemic)
-- reply F

-- ask # TODO verify Kb < 300 nM strictly for this compound: CCCC(Oc1ccc(-c2cnn(C)c2)cc1)c1ccc(C(=O)NCCC(=O)O)cc1 (racemic)
-- reply F

-- ask # TODO verify Kb < 300 nM strictly for this compound: O=C(O)CCNC(=O)c1ccc(C(CC2CC2)Oc2ccc(-n3cc(C(F)(F)F)cn3)cc2)cc1 (racemic)
-- reply F

-- ask # TODO verify Kb < 300 nM strictly for this compound: CCCC(Oc1cc(C)c(-n2cc(Cl)cn2)c(C)c1)c1ccc(C(=O)NCCC(=O)O)cc1 (stereo not shown) [Example 130]
-- reply T

-- ask # TODO verify Kb < 300 nM strictly for this compound: O=C(O)CCNC(=O)c1ccc(C(Nc2cnc(-n3cnc(C(F)(F)F)c3)nc2)C2CCCC2)cc1 (stereo not shown)
-- reply T

-- ask # TODO verify Kb < 300 nM strictly for this compound: CCCC(Oc1ccc(-n2cc3c(C)cccc3n2)cc1)c1ccc(C(=O)NCCC(=O)O)cc1 (stereo not shown)
-- reply T

-- ask # TODO verify Kb < 300 nM strictly for this compound: `Cc1cc([C@H](CC(C)C)Nc2ccc(C(=O)NCCC(=O)O)cn2)cc(C)c1-n1cc(C(F)(F)F)cn1`
-- reply F

-- ask # TODO verify Kb < 300 nM strictly for this compound: Cc1nn(-c2ccc(N[C@H](c3ccc(C(=O)NCCC(=O)O)cc3)C3CCCC3)cn2)cc1Cl (single isomer, unassigned; isomer 1) [Example 191]
-- reply T

-- ask # TODO verify Kb < 300 nM strictly for this compound: CC1(C)CC(C(Oc2cnc(-n3cc(C(F)(F)F)cn3)nc2)c2ccc(C(=O)NCCC(=O)O)cc2)C1 (single isomer, unassigned; isomer 1) [Example 156]
-- reply T

* * *

Entries and their Kb values follow.
# System under test: human glucagon receptor (Homo sapiens (Human), UniProt P47871)
# Test name: Glucagon cAMP Assay (Cisbio cAMP detection)
# Type: cell-based
# Assay conditions: CHOK1 cells stably transfected with the human glucagon receptor; block of glucagon induced cAMP production; Kb by modified Cheng-Prusoff equation
Give the number; nM is assumed, so skip it.

Some entries whose results are on file:
{"columns": ["Compound", "Quantity measured", "Obs value"],
 "data": [
  ["CCCC(Nc1ccc(-n2cnc(-c3ccccc3)c2)nc1)c1ccc(C(=O)NCCC(=O)O)cc1 (single isomer, unassigned) [Example 129]", "Kb", 13],
  ["CCCC(Oc1ccc(-n2cnc(C(F)(F)F)n2)cc1)c1ccc(C(=O)NCCC(=O)O)cc1 (racemic)", "Kb", 2640],
  ["Cc1cc(-n2cc(C(F)(F)F)cn2)ccc1C(Nc1ccc(C(=O)NCCC(=O)O)cn1)C1CCCCC1 (single isomer, unassigned) [Example 117]", "Kb", 227],
  ["CC(C)C[C@H](Nc1ccc(C(=O)NCCC(=O)O)cn1)c1ccc(-n2cc(C(F)(F)F)cn2)nc1 (single isomer, unassigned) [Example 143]", "Kb", 179],
  ["CC(C)CC(Nc1ncc(C(=O)NCCC(=O)O)cn1)c1ccc(-n2cc(C(F)(F)F)cn2)cc1 (racemic)", "Kb", 3840],
  ["CC(C)CC(Nc1ccc(C(=O)NCCC(=O)O)cn1)c1ccc(-n2cc(C(F)(F)F)cn2)cc1 (racemic)", "Kb", 494]
]}

Let's switch to this compound now.
-- ask Need Kb, item `CCC[C@H](Oc1cc(C)c(-n2cc3ccccc3n2)c(C)c1)c1ccc(C(=O)NCCC(=O)O)cc1`
-- reply 167

* * *

# System under test: human glucagon receptor (Homo sapiens (Human))
# Test name: Glucagon cAMP Assay (Cisbio cAMP detection)
# Format: cell-based
# Assay conditions: CHOK1 cells stably transfected with the human glucagon receptor; block of glucagon induced cAMP production; Kb by modified Cheng-Prusoff equation
# Experimental: The Cisbio cAMP detection assay is used to determine the ability of punitive glucagon antagonist to block glucagon induced cAMP production. Potential glucagon antagonists are re-suspended and diluted in 100% DMSO. […] Plates are incubated for an additional 60 min at room temperature prior to being read on the Perkin Elmer fluorescent plate reader. […] Converted data is then analyzed using the Pfizer data analysis program. IC50 values are determined from the generated sigmoidal dose response curves. […]
Quantity measured: Kb (nM)
Give the number; nM is assumed, so skip it.

Some entries whose results are on file:
{"columns": ["Molecule", "System under test", "Kb / nM"],
 "data": [
  ["CCCC(Oc1ccc(-n2cc3ccc(C)cc3n2)cc1)c1ccc(C(=O)NCCC(=O)O)cc1 (stereo not shown)", "human glucagon receptor (Homo sapiens (Human))", 212],
  ["CCCC(Oc1ccc(-n2cc(C)c(C)n2)cc1)c1ccc(C(=O)NCCC(=O)O)cc1 (racemic)", "human glucagon receptor (Homo sapiens (Human))", 2460],
  ["O=C(O)CCNC(=O)c1ccc(C(CC2CC2)Nc2ccc(-n3cc(C(F)(F)F)cn3)nc2)cc1 (racemic)", "human glucagon receptor (Homo sapiens (Human))", 252]
]}

Let's switch to this molecule now.
-- ask Need Kb, item CC1(C)CC(C(Nc2cnc(-n3cc(C(F)(F)F)cn3)nc2)c2ccc(C(=O)NCCC(=O)O)cc2)C1 (single isomer, unassigned; isomer 1) [Example 157]
-- reply 18.6

* * *

Entries and their Ki values follow.
# System under test: human glucagon receptor (Homo sapiens (Human), UniProt P47871)
Give the number; nM is assumed, so skip it.

-- ask Need Ki, item CCCC(Nc1ccc(-n2cc(-c3ccccc3)cn2)nc1)c1ccc(C(=O)NCCC(=O)O)cc1 (single isomer, unassigned; isomer 2) [Example 161]
-- reply 25.7

-- ask Need Ki, item CC(C)(C)[C@H](Nc1ccc(-n2cnc(C(F)(F)F)c2)nc1)c1ccc(C(=O)NCCC(=O)O)cc1 (single isomer, unassigned; isomer 1)
-- reply 156

-- ask Need Ki, item CCCC(Oc1ccc(-n2cc3cc(C)ccc3n2)cc1)c1ccc(C(=O)NCCC(=O)O)cc1 (centres unmarked)
-- reply 208

-- ask Need Ki, item CCCC(Oc1cc(C)c(-n2cnc(C(F)(F)F)c2)c(C)c1)c1ccc(C(=O)NCCC(=O)O)cc1 (centres unmarked)
-- reply 89.5

-- ask Need Ki, item CC(C)C[C@H](Nc1ccc(C(=O)NCCC(=O)O)cn1)c1ccc(-n2cc(C(F)(F)F)cn2)nc1 (single isomer, unassigned) [Example 143]
-- reply 57.4

-- ask Need Ki, item CCCC(Oc1cc(C)c(-n2cc(C(F)(F)F)nn2)c(C)c1)c1ccc(C(=O)NCCC(=O)O)cc1 (centres unmarked)
-- reply 125

* * *

# System under test: human glucagon receptor (Homo sapiens (Human))
# Test name: Glucagon cAMP Assay (Cisbio cAMP detection)
# Assay type: cell-based
# Assay conditions: CHOK1 cells stably transfected with the human glucagon receptor; block of glucagon induced cAMP production; Kb by modified Cheng-Prusoff equation
Entries and their Kb values follow.
Note: state the figure and append the unit.

{"columns": ["Molecule", "System under test", "Obs value"],
 "data": [
  ["CCCC(Nc1ccc(-n2cc(C3CC3)cn2)nc1)c1ccc(C(=O)NCCC(=O)O)cc1 (racemic)", "human glucagon receptor (Homo sapiens (Human))", "79.1 nM"],
  ["CCCC(Nc1ccc(-n2cc(C(F)(F)F)cn2)nc1)c1ccc(C(=O)NCCC(=O)O)cc1C (single isomer, unassigned) [Example 112]", "human glucagon receptor (Homo sapiens (Human))", "126 nM"],
  ["CCCC(Oc1ccc(-n2c(C)c(C)c(C)c2C#N)cc1)c1ccc(C(=O)NCCC(=O)O)cc1 (racemic)", "human glucagon receptor (Homo sapiens (Human))", "1790 nM"]
]}

-- ask Need Kb, item CCCC(Oc1ccc(-n2ccc(C(C)(C)C)n2)cc1)c1ccc(C(=O)NCCC(=O)O)cc1 (racemic)
-- reply 824 nM
